// data source = PubChem BioAssay AID1963440

Overview of reported viability, T/C across a group of molecules:
# Test system: NCI-H1417 complex spheroids, growth % test/control
# measurement_protocol: Anticancer human tumor NCI-H1417 cell line growth inhibition [Asc];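 also: spheroids exposed to compounds for 7 days; 100% = DMSO vehicle control wells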
# measurement_parameters: second compound 0.0949 µM; first compound 0.0316 µM; active compounds read low
Your answer should be a plain number; it is taken to be in %.

Ask: Request the reported viability, T/C associated with CNC(C)C(=O)NC1CN(S(=O)(=O)c2cccc(S(=O)(=O)N3CCC4CCC(C(=O)NC(c5ccccc5)c5ccccc5)N4C(=O)C(NC(=O)C(C)NC)C3)c2)CCC2CCC(C(=O)NC(c3ccccc3)c3ccccc3)N2C1=O (stereo not given) + CCN1C(C(=O)NC23CCC(C(=O)O)(CC2)CC3)C(c2cccc(Cl)c2F)C2(C(=O)Nc3cc(Cl)ccc32)C12CCCCC2
Reply: 108

Ask: Request the reported viability, T/C associated with Cn1ncnc1[C@H]1c2n[nH]c(=O)c3cc(F)cc(c23)N[C@@H]1c1ccc(F)cc1 + CCN1C(C(=O)NC23CCC(C(=O)O)(CC2)CC3)C(c2cccc(Cl)c2F)C2(C(=O)Nc3cc(Cl)ccc32)C12CCCCC2
Reply: 49.9

Ask: Request the reported viability, T/C associated with COc1c(OCCCN2CCOCC2)ccc2c3n(c(=NC(=O)c4cnc(N)nc4)nc12)CCN3 + CCN1C(C(=O)NC23CCC(C(=O)O)(CC2)CC3)C(c2cccc(Cl)c2F)C2(C(=O)Nc3cc(Cl)ccc32)C12CCCCC2
Reply: 87.2

Ask: Request the reported viability, T/C associated with O=C(c1ccc(F)c(F)c1Nc1ccc(I)cc1F)N1CC(O)([C@@H]2CCCCN2)C1 + CCN1C(C(=O)NC23CCC(C(=O)O)(CC2)CC3)C(c2cccc(Cl)c2F)C2(C(=O)Nc3cc(Cl)ccc32)C12CCCCC2
Reply: 97.5

Ask: Request the reported viability, T/C associated with O=C(c1cc(Cc2n[nH]c(=O)c3ccccc23)ccc1F)N1CCN(C(=O)C2CC2)CC1 + CCN1C(C(=O)NC23CCC(C(=O)O)(CC2)CC3)C(c2cccc(Cl)c2F)C2(C(=O)Nc3cc(Cl)ccc32)C12CCCCC2
Reply: 101

Ask: Request the reported viability, T/C associated with NC1CCC(NC2CC2c2ccccc2)CC1 (stereo not given) + CCN1C(C(=O)NC23CCC(C(=O)O)(CC2)CC3)C(c2cccc(Cl)c2F)C2(C(=O)Nc3cc(Cl)ccc32)C12CCCCC2
Reply: 73.1

Ask: Request the reported viability, T/C associated with C=C(F)C(=O)N1CCN(c2nc(OCC3CCCN3C)nc3c2CCN(c2cccc4cccc(Cl)c24)C3)CC1CC#N (stereo not given) + CCN1C(C(=O)NC23CCC(C(=O)O)(CC2)CC3)C(c2cccc(Cl)c2F)C2(C(=O)Nc3cc(Cl)ccc32)C12CCCCC2
Reply: 97.9

Ask: Request the reported viability, T/C associated with C#Cc1c(F)ccc2cc(O)cc(-c3ncc4c(N5CC6CCC(C5)N6)nc(OCC56CCCN5CC(F)C6)nc4c3F)c12 (stereo not given) + CCN1C(C(=O)NC23CCC(C(=O)O)(CC2)CC3)C(c2cccc(Cl)c2F)C2(C(=O)Nc3cc(Cl)ccc32)C12CCCCC2
Reply: 107

Ask: Request the reported viability, T/C associated with C=CC(=O)N1CCN(c2nc(=O)n(-c3c(C)ccnc3C(C)C)c3nc(-c4c(O)cccc4F)c(F)cc23)C(C)C1 (stereo not given) + CCN1C(C(=O)NC23CCC(C(=O)O)(CC2)CC3)C(c2cccc(Cl)c2F)C2(C(=O)Nc3cc(Cl)ccc32)C12CCCCC2
Reply: 102

Ask: Request the reported viability, T/C associated with CCN1CCN(Cc2ccc(Nc3ncc(F)c(-c4cc(F)c5nc(C)n(C(C)C)c5c4)n3)nc2)CC1 + CCN1C(C(=O)NC23CCC(C(=O)O)(CC2)CC3)C(c2cccc(Cl)c2F)C2(C(=O)Nc3cc(Cl)ccc32)C12CCCCC2
Reply: 92.7
